Data origin: PubChem BioAssay AID652241

- TARGET_OR_TEST_SYSTEM: Virion infectivity factor (Human immunodeficiency virus type 1 group M subtype B (isolate BH10)) + Virion infectivity factor (Human immunodeficiency virus type 1 group M subtype B (isolate BRU/LAI)) + Virion infectivity factor (Human immunodeficiency virus type 1 group M subtype B (isolate PCV12)) + Virion infectivity factor (Human immunodeficiency virus type 1 group M subtype B (isolate HXB2)) (UniProt P69720+P69721+P69722+P69723)
- Sequence (P69720 whole entry, looked up): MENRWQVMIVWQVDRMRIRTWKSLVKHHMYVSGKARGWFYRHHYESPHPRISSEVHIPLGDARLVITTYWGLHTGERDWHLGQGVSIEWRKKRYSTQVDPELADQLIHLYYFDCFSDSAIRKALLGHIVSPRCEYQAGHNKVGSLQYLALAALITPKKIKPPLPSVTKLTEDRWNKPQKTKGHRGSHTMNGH
- Sequence (P69721 whole entry, looked up): as the sequence (P69720 whole entry, looked up) above
- Sequence (P69722 whole entry, looked up): as the sequence (P69720 whole entry, looked up) above
- Sequence (P69723 whole entry, looked up): as the sequence (P69720 whole entry, looked up) above
- EXPERIMENT: dose-dependent disruption of HIV Vif self-association – imaging, HEK293T, cherry-picks, dose response (AID 652241);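 note: imaged cell signal that rises when Vif self-association is disrupted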
- MEASUREMENT_SETUP: HEK293T Vif multimerization imaging, 24 h
Records with an inconclusive call do not appear. Active and inactive are the calls of the source.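 Rule for the calls: active = fitted curve reaches activity 50 in the expected rising direction at or below the top valid tested dose; inconclusive = no clear call, values can overlap the other calls; inactive = activity in the wrong direction, and the rest.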
Write down one outcome, taken from active, inactive

Field: outcome | Entry: `Cc1nn(Cc2c(Cl)cccc2Cl)c(C)c1NC(=O)c1cnn2c(C(F)F)cc(-c3ccccc3)nc12`
active

Field: outcome | Entry: CC(=O)Nc1ccc(-c2ccnc3c2CC(C(=O)NCc2ccccc2)O3)cc1 (stereo not given)
active

Field: outcome | Entry: `CCN(CC)C(=O)c1sc2nc(-c3cccs3)cc(-c3cccs3)c2c1N`
inactive

Field: outcome | Entry: `CCN1C(=O)c2cccc3c(S(=O)(=O)Nc4nc(C)cs4)ccc1c23`
active

Field: outcome | Entry: `CC(C)OC(=O)c1ccc(NCc2cc(O)ccc2O)cc1Cl`
active

Field: outcome | Entry: COc1cc(C2c3cc4c(cc3CC3COC(=O)C32)OCO4)cc(OC)c1OC (stereo not given)
active

Field: outcome | Entry: `CCc1ccc(N2C(=O)/C(=C/c3cccs3)N(CC(=O)OC)C2=S)cc1`
active

Field: outcome | Entry: `COc1ccc(-c2cc(C(F)(F)F)n3nc(C(=O)NCc4ccco4)c(Cl)c3n2)cc1`
active

Field: outcome | Entry: `CCOc1c(C(N)=O)c(-c2ccccc2)c2c(=O)[nH]c3ccccc3n12`
inactive

Field: outcome | Entry: `Cc1cc(C)c2nc3sc(C(=O)N4CCOCC4)c(N)c3cc2c1`
active

----------
- TARGET_OR_TEST_SYSTEM: Virion infectivity factor (Human immunodeficiency virus type 1 group M subtype B (isolate BH10)) + Virion infectivity factor (Human immunodeficiency virus type 1 group M subtype B (isolate BRU/LAI)) + Virion infectivity factor (Human immunodeficiency virus type 1 group M subtype B (isolate PCV12)) + Virion infectivity factor (Human immunodeficiency virus type 1 group M subtype B (isolate HXB2)) (UniProt P69720+P69721+P69722+P69723)
- EXPERIMENT: dose-dependent disruption of HIV Vif self-association – imaging, HEK293T, cherry-picks, dose response (AID 652241);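 note: imaged cell signal that rises when Vif self-association is disrupted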
- MEASUREMENT_SETUP: HEK293T Vif multimerization imaging, 24 h; at 19.5 µM (top of the series)
Inconclusive results are not listed. Active and inactive are the calls of the source.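 How the source made its calls: active means fitted curve reaches activity 50 in the expected rising direction at or below the top valid tested dose; inconclusive means no clear call, values can overlap the other calls; inactive means activity in the wrong direction, and the rest.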 Square brackets hold non-standard residues; d marks the D form. Peptide text beside a SMILES is read from it. ξ: configuration not given here. Ac5c = NC1(C(=O)O)CCCC1; ξP = O=C(O)C1CCCN1
REPORTED_PROPERTY: activity, higher = inhibition

As a guide, the following entries are already answered.
1. CCN1C(=O)c2cccc3c(S(=O)(=O)Nc4ccccc4O)ccc1c23; inactive
2. COc1cc(NC(=O)c2ccc(C)cc2C)ccc1NC(=O)c1cccs1; inactive
3. CCOC(=O)C1CCCN1C(=O)C1(NC(C)=O)CCCC1 (centres undefined) (Ac-[Ac5c]-[ξP]-OEt); inactive
4. COc1cc(C(C)=O)ccc1OCC(=O)NCC1(N2CCCCC2)CCCCC1; inactive

Entry `CSc1ccc(CN(C)CC(=O)NCCc2ccccc2)cc1` has what activity, higher = inhibition?
inactive

Entry `O=C(Nc1cccc(-c2cc3ccccc3oc2=O)c1)c1ccc(Br)o1` has what activity, higher = inhibition?
inactive
